Hi there, I'd appreciate the recorded MNTC for every entry that follows.
test: in vitro; assay type: cell-based; conditions: human, mcr-5 fibroblasts
One number for each entry, in µg/mL.

Please go through the list and note MNTC for each compound.
1. Clc1ncccc1N=C1SC[C@@H]2Cc3ccccc3CN12 [Compound 2]
2. COc1ncccc1N=C1SC[C@@H]2Cc3ccccc3CN12 [Compound 4]
3. Cc1cc2c(N=C3SC[C@@H]4Cc5ccccc5CN34)cccc2cn1 [Compound 6]

[15, 15, 30]

Need MNTC of Fc1ncccc1N=C1SC[C@@H]2Cc3ccccc3CN12 [Compound 3] , thanks. 15
